Data origin: the supplement of paper PMC3545927

# Measured Target: furin, P09958;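 note: purified furin at 1:10 enzyme:substrate in 50 mM HEPES pH 7.5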
# Sequence (P09958 whole entry): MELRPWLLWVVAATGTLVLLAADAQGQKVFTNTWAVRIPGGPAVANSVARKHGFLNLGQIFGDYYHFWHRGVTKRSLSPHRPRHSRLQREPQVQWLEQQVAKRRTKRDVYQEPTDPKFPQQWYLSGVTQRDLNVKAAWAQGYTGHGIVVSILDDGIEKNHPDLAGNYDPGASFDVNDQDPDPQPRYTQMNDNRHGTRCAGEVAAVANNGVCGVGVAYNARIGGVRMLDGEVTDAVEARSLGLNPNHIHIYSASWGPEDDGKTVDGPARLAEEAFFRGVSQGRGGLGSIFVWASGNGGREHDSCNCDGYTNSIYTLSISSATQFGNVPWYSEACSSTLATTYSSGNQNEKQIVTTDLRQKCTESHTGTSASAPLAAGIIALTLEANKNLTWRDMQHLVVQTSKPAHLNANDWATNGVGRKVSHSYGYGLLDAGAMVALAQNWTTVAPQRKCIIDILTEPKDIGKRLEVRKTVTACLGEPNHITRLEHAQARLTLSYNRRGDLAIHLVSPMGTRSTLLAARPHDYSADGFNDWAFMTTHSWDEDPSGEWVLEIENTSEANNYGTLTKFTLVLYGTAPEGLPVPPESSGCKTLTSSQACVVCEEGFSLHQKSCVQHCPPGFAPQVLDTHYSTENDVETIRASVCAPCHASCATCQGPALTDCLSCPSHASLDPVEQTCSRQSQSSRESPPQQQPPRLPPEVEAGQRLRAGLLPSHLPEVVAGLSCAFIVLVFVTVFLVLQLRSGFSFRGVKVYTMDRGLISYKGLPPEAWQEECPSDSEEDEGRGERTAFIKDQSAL
# Assay Summary: furin cleavage Z-score vs untreated control; higher = more cleavage, active = 3.5 or more, inactive = 1 or less, 8 variable residues between constant flanks
# Run Conditions: 15 min
The other results are listed elsewhere or left out. The hit rate among all sequences tested is not known here.
Respond with met for furin cleavage Z-score values of 1 and above, not met for values below.

| Record Sequence | Class Assignment |
| --- | --- |
| CAMEEFSQHLAGNASASA [HC6] | not met |
| CAPDLGVRVCAGNASASA [HC1452] | not met |
| CAEVTTSTWVAGNASASA [HC2198] | not met |
| CAAQAREKRFAGNASASA [FS-1511] | met |
| CAATLCSALYAGNASASA [HC295] | not met |
| CAEVVTSTWAAGNASASA [HC2243] | not met |
| CARKNRSHIPAGNASASA [FS-1730] | not met |
| CARHKRWHFIAGNASASA [FS-1824] | met |
| CAFTPSPVVVAGNASASA [HC415] | not met |
| CARQERNKRFAGNASASA [FS-711] | met |
| CADQKRSLESAGNASASA [FS-2246] | not met |
| CAPTSGDVVVAGNASASA [HC874] | not met |
| CARQYRSAYYAGNASASA [FS-2591] | not met |
| CAREGRLKRDAGNASASA [FS-1256] | met |
| CALQKRSSRHAGNASASA [FS-2631] | met |
| CARQKRILVNAGNASASA [FS-1768] | not met |
| CAIPDREVLYAGNASASA [HC1008] | not met |
| CASHPCSAHLAGNASASA [HC2495] | not met |
| CARKKRSVVVAGNASASA [DV4] | met |
| CARIVRSLMPAGNASASA [FS-2956] | met |
| CARHYRWALGAGNASASA [FS-1719] | met |
| CARHGRDLYRAGNASASA [FS-2675] | met |
| CATTPESGSWAGNASASA [HC53] | not met |
| CAKRSHLKRDAGNASASA [FS-680] | met |
| CAPRKKRTVVAGNASASA [HC1324] | met |
| CAQTKQSGENAGNASASA [HC948] | not met |
| CARVKRSVVVAGNASASA [FS-2840] | met |
| CARHKRTIPMAGNASASA [FS-2023] | met |
| CAMEECSQHLAGNASASA [HC14] | not met |
| CAREHRSGEPAGNASASA [FS-2004] | not met |
